Experiment: in vivo
Conditions: female, BALB/c nu/nu, mouse, tumour and kidney, iv, total radioactivity
Procedure: Animal studies were planned and performed in agreement with EU Directive 2010/63/EU for animal experiments and Swedish national legislation concerning protection of laboratory animals. […] Mice were euthanized followed by dislocation of their neck at 0.5 h after injection and blood samples were collected by heart puncture. […] The organ radioactivity was measured in a gamma-counter and uptake values of organs were calculated as percentage of injected dose per gram tissue (% ID/g). […]
Where a SMILES comes first, the peptide text is derived from it. [ ]: non-standard residue; d: D form. Tyr(3-I) = N[C@@H](Cc1ccc(O)c(I)c1)C(=O)O; Sta = CC(C)C[C@H](N)[C@@H](O)CC(=O)O; AEEA = NCCOCCOCC(=O)O
test.readout: tissue to tissue ratio at 3 h
Output: the number by itself.

Input line: If you can, please state the reported tissue to tissue ratio at 3 h value of CC(C)C[C@H](NC(=O)C[C@H](O)[C@H](CC(C)C)NC(=O)[C@H](Cc1c[nH]cn1)NC(=O)CNC(=O)[C@@H](NC(=O)[C@H](C)NC(=O)[C@H](Cc1c[nH]c2ccccc12)NC(=O)[C@H](CCC(N)=O)NC(=O)[C@@H](Cc1ccccc1)NC(=O)COCCOCCNC(=O)[C@@H](N)Cc1ccc(O)c(I)c1)C(C)C)C(N)=O [[^125I]I-Tyr-PEG2-RM26] (H-[Tyr(3-I)][AEEA][dF]QWAVGH[Sta]L-NH2) .
Output line: 0.3

###

assay: in vivo; settings: female, BALB/c nu/nu, mouse, tumour and small intestine, iv, total radioactivity
Where a SMILES comes first, the peptide text is derived from it. [ ]: non-standard residue; d: D form. Tyr(3-I) = N[C@@H](Cc1ccc(O)c(I)c1)C(=O)O; Sta = CC(C)C[C@H](N)[C@@H](O)CC(=O)O; AEEA = NCCOCCOCC(=O)O
test.readout: tissue to tissue ratio at 0.5 h
Output: the number by itself.

Input line: If you can, please state the reported tissue to tissue ratio at 0.5 h value of CC(C)C[C@H](NC(=O)C[C@H](O)[C@H](CC(C)C)NC(=O)[C@H](Cc1c[nH]cn1)NC(=O)CNC(=O)[C@@H](NC(=O)[C@H](C)NC(=O)[C@H](Cc1c[nH]c2ccccc12)NC(=O)[C@H](CCC(N)=O)NC(=O)[C@@H](Cc1ccccc1)NC(=O)COCCOCCNC(=O)[C@@H](N)Cc1ccc(O)c(I)c1)C(C)C)C(N)=O [[^125I]I-Tyr-PEG2-RM26] (H-[Tyr(3-I)][AEEA][dF]QWAVGH[Sta]L-NH2) .
Output line: 1.1

###

assay: in vivo; settings: mouse, salivary gland, iv, 40 pmol, Uptake, salivary gland, 0.5 h after injection; 40 pmol i.v.
Where a SMILES comes first, the peptide text is derived from it. [ ]: non-standard residue; d: D form. Tyr(3-I) = N[C@@H](Cc1ccc(O)c(I)c1)C(=O)O; Sta = CC(C)C[C@H](N)[C@@H](O)CC(=O)O; AEEA = NCCOCCOCC(=O)O
test.readout: tissue uptake at 0.5 h (%ID/g)
# value in %ID/g; strip the unit string

CC(C)C[C@H](NC(=O)C[C@H](O)[C@H](CC(C)C)NC(=O)[C@H](Cc1c[nH]cn1)NC(=O)CNC(=O)[C@@H](NC(=O)[C@H](C)NC(=O)[C@H](Cc1c[nH]c2ccccc12)NC(=O)[C@H](CCC(N)=O)NC(=O)[C@@H](Cc1ccccc1)NC(=O)COCCOCCNC(=O)[C@@H](N)Cc1ccc(O)c(I)c1)C(C)C)C(N)=O [[^125I]I-Tyr-PEG2-RM26] (H-[Tyr(3-I)][AEEA][dF]QWAVGH[Sta]L-NH2)    6.6

We next turn to a different compound, shown below.
Input line: If you can, please state the reported tissue uptake at 0.5 h value of CC(C)C[C@H](NC(=O)C[C@H](O)[C@H](CC(C)C)NC(=O)[C@H](Cc1c[nH]cn1)NC(=O)CNC(=O)[C@@H](NC(=O)[C@H](C)NC(=O)[C@H](Cc1c[nH]c2ccccc12)NC(=O)[C@H](CCC(N)=O)NC(=O)[C@@H](Cc1ccccc1)NC(=O)COCCOCCNC(=O)CN1CCN(CC(=O)O)CCN(CC(=O)O)CCN(CC(=O)O)CC1)C(C)C)C(N)=O [[^111In]In-DOTA-PEG2-RM26, metal not drawn, reference compound] .
Output line: 0.8
